Test system: HCV replicon (NS5A1b) in Huh-7 cells
Assay: microbe, parasite or virus in culture
Type: cell-based
Settings: Hepatitis C virus, Huh-7; Example 9 replicon assay; read-out: EC50 values in HCV replicon assay
Reported EC50 values for the following compounds.
QUANTITY_MEASURED: EC50

STRUCTURE_STRING	QUANTITY_MEASURED	TEST_RESULT
COC(=O)N[C@H](C(=O)N1CCC[C@H]1c1nc(-c2ccc(-c3cc4ccc3CCc3ccc(c(-c5ccc(-c6c[nH]c([C@@H]7CCCN7C(=O)[C@@H](NC(=O)OC)C(C)C)n6)cc5)c3)CC4)cc2)c[nH]1)C(C)C	EC50	≤ 10 µM
CC(C)(C)OC(=O)Nc1ccc(B2OC(C)(C)C(C)(C)O2)cc1NC(=O)OC(C)(C)C	EC50	≤ 10 µM
CC(C)(C)OC(=O)N1[C@H](c2nc3ccc(B4OC(C)(C)C(C)(C)O4)cc3[nH]2)C[C@@H]2CCCC[C@@H]21	EC50	≤ 10 µM
